We begin with a simple list: items and their reported inhibition at 25 µM.
EXPERIMENTAL TARGET: Aβ1–42 (Homo sapiens, UniProt P05067)
Sequence (P05067 672-713): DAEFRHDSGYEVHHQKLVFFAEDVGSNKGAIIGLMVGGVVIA
TEST PROTOCOL: Inhibition of self-induced Aβ1–42 aggregation
Format: biochemical
SETTINGS: read-out: Inhibition of Aβ1–42 aggregation (%) Self-induced, 25 μM; ThT assay
ASSAY ENDPOINT: inhibition at 25 µM (%)

[
  {
    "COMPOUND": "COc1cc(O)c(C(=O)/C=C/c2ccc(O)cc2)c(OC)c1O [Compound 16]",
    "EXPERIMENTAL TARGET": "Aβ1–42 (Homo sapiens, UniProt P05067)",
    "ASSAY ENDPOINT": "inhibition at 25 µM",
    "RELATION SIGN": "=",
    "MEASUREMENT": 27.7
  },
  {
    "COMPOUND": "CCN(CCCCOc1ccc(/C=C/C(=O)c2c(O)cc(OC)c(O)c2OC)cc1)Cc1ccccc1OC [Compound 17d]",
    "EXPERIMENTAL TARGET": "Aβ1–42 (Homo sapiens, UniProt P05067)",
    "ASSAY ENDPOINT": "inhibition at 25 µM",
    "RELATION SIGN": "=",
    "MEASUREMENT": 73.8
  },
  {
    "COMPOUND": "COc1ccccc1CN(C)CCCCOc1ccc(/C=C/C(=O)c2c(O)cc(OC)c(OC)c2OC)cc1 [Compound 9c]",
    "EXPERIMENTAL TARGET": "Aβ1–42 (Homo sapiens, UniProt P05067)",
    "ASSAY ENDPOINT": "inhibition at 25 µM",
    "RELATION SIGN": "=",
    "MEASUREMENT": 65
  },
  {
    "COMPOUND": "COc1ccccc1CN(C)CCCCCCOc1ccc(/C=C/C(=O)c2c(O)cc(OC)c(OC)c2OC)cc1 [Compound 9e]",
    "EXPERIMENTAL TARGET": "Aβ1–42 (Homo sapiens, UniProt P05067)",
    "ASSAY ENDPOINT": "inhibition at 25 µM",
    "RELATION SIGN": "=",
    "MEASUREMENT": 65.3
  },
  {
    "COMPOUND": "CCN(CCCCOc1ccc(/C=C/C(=O)c2c(O)cc(OC)c(OC)c2OC)cc1)Cc1ccccc1OC [Compound 9d]",
    "EXPERIMENTAL TARGET": "Aβ1–42 (Homo sapiens, UniProt P05067)",
    "ASSAY ENDPOINT": "inhibition at 25 µM",
    "RELATION SIGN": "=",
    "MEASUREMENT": 72.7
  },
  {
    "COMPOUND": "COc1cc2c(cc1OC)C(=O)C(CC1CCN(Cc3ccccc3)CC1)C2 (centres unmarked) [Donepezil, reference compound]",
    "EXPERIMENTAL TARGET": "Aβ1–42 (Homo sapiens, UniProt P05067)",
    "ASSAY ENDPOINT": "inhibition at 25 µM",
    "RELATION SIGN": "<",
    "MEASUREMENT": 5
  },
  {
    "COMPOUND": "CCN(CCCCCCOc1ccc(/C=C/C(=O)c2c(O)cc(OC)c(OC)c2OC)cc1)Cc1ccccc1OC [Compound 9f]",
    "EXPERIMENTAL TARGET": "Aβ1–42 (Homo sapiens, UniProt P05067)",
    "ASSAY ENDPOINT": "inhibition at 25 µM",
    "RELATION SIGN": "=",
    "MEASUREMENT": 69
  },
  {
    "COMPOUND": "CCN(CCCOc1ccc(/C=C/C(=O)c2c(O)cc(OC)c(OC)c2OC)cc1)Cc1ccccc1OC [Compound 9b]",
    "EXPERIMENTAL TARGET": "Aβ1–42 (Homo sapiens, UniProt P05067)",
    "ASSAY ENDPOINT": "inhibition at 25 µM",
    "RELATION SIGN": "=",
    "MEASUREMENT": 63.4
  }
]
